ASSAY: Inhibition of protein biosynthesis in mouse Krebs cells assessed as firefly luciferase activity at 10 uM after 1 hr by translation assay relative to control
Type: functional
Record form. Attribute: Activity. Fill in for each entry.
No unit in the answer, please; the number alone is enough.

Quick one: Activity of CC[C@@H](C)C(=O)O[C@H]1C(=O)O[C@@H]2C[C@H]3C(C)=C[C@H](O)[C@@H](O)[C@]3(C)[C@H]3[C@@H](O)[C@@H](O)[C@]4(C)OC[C@]32[C@@H]14 ?
0.05

Another: CC[C@@H](C)C(=O)O[C@H]1C(=O)O[C@@H]2C[C@H]3C(C)=CC(=O)[C@@H](O)[C@]3(C)[C@H]3[C@@H](OC(C)=O)[C@H](OC(C)=O)[C@]4(C)OC[C@]32[C@@H]14
0.42

Another: CC[C@@H](C)C(=O)O[C@H]1C(=O)O[C@@H]2C[C@H]3C(C)=C[C@H](OC(C)=O)[C@@H](OC(C)=O)[C@]3(C)[C@H]3[C@@H](O)[C@@H](OC(C)=O)[C@]4(C)OC[C@]32[C@@H]14
1.02

---

Test system: HL-60
ASSAY: Cytotoxicity against human HL60 cells by XTT assay
Assay type: cell-based
PROPERTY LABEL: IC50 (µg/mL)
Answer in µg/mL, number only, no unit symbol.

Quick one: IC50 of CC[C@@H](C)C(=O)O[C@H]1C(=O)O[C@@H]2C[C@H]3C(C)=CC(=O)[C@@H](O)[C@]3(C)[C@H]3[C@@H](OC(C)=O)[C@H](OC(C)=O)[C@]4(C)OC[C@]32[C@@H]14 ?
40

Another: CC[C@@H](C)C(=O)O[C@H]1C(=O)O[C@@H]2C[C@H]3C(C)=C[C@H](O)[C@@H](O)[C@]3(C)[C@H]3[C@@H](O)[C@@H](O)[C@]4(C)OC[C@]32[C@@H]14
0.7

Another: C=C1[C@@H](C)[C@H]2[C@H](Cc3ccccc3)NC(=O)[C@]23OC(=O)/C=C/[C@H](O)CCC[C@@H](C)C/C=C/[C@H]3[C@@H]1O
40

Another: CC[C@@H](C)C(=O)O[C@H]1C(=O)O[C@@H]2C[C@H]3C(C)=CC(=O)[C@@H](O)[C@]3(C)[C@H]3[C@@H](O)[C@H](O)[C@]4(C)OC[C@]32[C@@H]14
0.025
